Values compiled from BindingDB's records for doi:10.3109/14756366.2011.643302.

TARGET_UNDER_TEST: Protein farnesyltransferase subunit beta/geranylgeranyltransferase type-1 subunit alpha (Homo sapiens, UniProt P49354+P49356)
RUN_DESCRIPTION: Human FTase Assay
READOUT_KIND: log10 IC50 (log10 of the value in µM)
The common logarithm of IC50 in µM is what is listed.

Examples from the recorded data:
CC(C)Sc1sc(C(=O)O)c(-c2cccc3oc4ccccc4c23)c1C#N 1.18
Cc1ccc(-c2c(C(=O)O)sc(SC(C)C)c2C#N)cc1 1.32
CC(C)Sc1sc(C(=O)O)c(-c2ccc3ccccc3c2)c1C#N 0.68
CC(C)Sc1sc(C(=O)O)c(-c2ccccc2)c1C#N 1.53
CC(C)Sc1sc(C(=O)O)c(-c2cccc(-c3ccccc3)c2)c1C#N 0.52
Cc1cccc(-c2c(C(=O)O)sc(SC(C)C)c2C#N)c1 1.20
COC(=O)c1cccc(-c2c(C(=O)O)sc(SC(C)C)c2C#N)c1 0.85
CC(C)Sc1sc(C(=O)O)c(-c2cccc(Cl)c2)c1C#N 1.68
CC(C)Sc1sc(C(=O)O)c(-c2ccc(-c3ccccc3)cc2)c1C#N 0.74
CC(C)Sc1sc(C(=O)O)c(-c2cccc3ccccc23)c1C#N 1.51

Query `CC(C)Sc1sc(C(=O)O)c(-c2ccc(F)cc2)c1C#N` yields log10 IC50 of 1.30

Query `COC(=O)c1ccc(-c2c(C(=O)O)sc(SC(C)C)c2C#N)cc1` yields log10 IC50 of 1.11

Query `CC(C)Sc1sc(C(=O)O)c(-c2cccc(C(F)(F)F)c2)c1C#N` yields log10 IC50 of 1.53

Query `CC(C)Sc1sc(C(=O)O)c(-c2cccc(F)c2)c1C#N` yields log10 IC50 of 1.36
